Property: growth inhibition; scope: individual molecules
experiment: NCI Yeast Anticancer Drug Screen. Data for the mec2-1 strain (AID 157); conditions: S. cerevisiae mec2-1 strain, at 50.0 µM, stronger effect = higher value
About 79,000 compounds went through this panel and 15% of them were active in at least one assay; those are over-represented in the sample as a whole.
PROPERTY_LABEL: growth inhibition (%)

>>> number("CC(C)(C)CC(C)(O)C(=O)O (configuration not stated)")
-18.9
>>> number("CCCCNC(=O)OCc1cnc(C)n1Cc1ccccc1")
-0.3
>>> number("COc1ccc2c(C)[n+]3ccc4cc(OC)c(OC)cc4c3cc2c1 (tested in a mixture with another compound)")
12.4
>>> number("CC(=O)OCCOCCN1CCN(c2c(O)c3c(c(O)c2Cl)C(=O)C=CC3=O)CC1")
88.2
>>> number("O=C(Nc1ccc(F)cc1)c1ccc(Cl)cc1Cl")
-28.4
>>> number("O=C(O)C1C2C=CC(O2)C1C(=O)Nn1cccc1 (configuration not stated)")
-7.5
>>> number("O=C(N=Nc1c(O)[nH]c2ccccc12)c1ccncc1")
2.15
>>> number("COc1ccc(/C=C2\\Oc3cc(OC(C)=O)ccc3C2=O)cc1")
-44.6
>>> number("Cc1cc(C)c(NS(=O)(=O)c2ccc(Cl)cc2)cc1C")
85.8
>>> number("CCC(=O)Oc1ccc[nH]c1=O")
21.2
>>> number("Nc1ncnc2oc(-c3ccccc3)nc12")
-0.85
>>> number("CC(=O)OC(C(=O)N(c1ccccc1)c1ccccc1)c1ccccc1 (configuration not stated)")
27.4
